- target_desc: FAAH (Mus musculus, UniProt O08914)
- Construct: A fragment of liver, left lung lobe and brain without cerebellum were removed; from tissue; host or cells: male NMRI mice; brain (without cerebellum) and liver homogenates
- Sequence (O08914 1-579): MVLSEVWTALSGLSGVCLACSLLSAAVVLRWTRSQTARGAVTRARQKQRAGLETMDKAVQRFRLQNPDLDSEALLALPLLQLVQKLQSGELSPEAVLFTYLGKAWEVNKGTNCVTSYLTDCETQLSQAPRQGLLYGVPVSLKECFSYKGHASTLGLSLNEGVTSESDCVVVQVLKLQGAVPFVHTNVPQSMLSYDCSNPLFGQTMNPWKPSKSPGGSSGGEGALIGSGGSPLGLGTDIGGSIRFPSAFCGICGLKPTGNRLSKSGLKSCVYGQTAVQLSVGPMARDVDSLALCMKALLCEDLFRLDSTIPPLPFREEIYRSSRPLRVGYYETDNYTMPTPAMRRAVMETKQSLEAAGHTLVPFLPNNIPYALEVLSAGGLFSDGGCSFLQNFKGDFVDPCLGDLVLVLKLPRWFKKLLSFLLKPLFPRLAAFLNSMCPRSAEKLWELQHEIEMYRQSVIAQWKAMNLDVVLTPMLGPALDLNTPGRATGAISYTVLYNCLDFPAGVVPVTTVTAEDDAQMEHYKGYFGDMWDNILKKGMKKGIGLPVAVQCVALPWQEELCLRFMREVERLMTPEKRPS
- experimental_details: In vivo FAAH inhibition after oral dosing, remaining activity in liver homogenate (LVh, peripheral tissue)
- Parameters: species or system NMRI mice
- test_parameters: liver homogenate, 3 mg/kg oral, 8 h; low value = strong inhibitor
Hi there, I'd appreciate the recorded In Vivo LVh 3 mg · kg · 8 h (remaining FAAH activity) for every entry that follows.

Entry under test: CN(C(=O)n1cnc(-c2ccc(S(C)(=O)=O)cc2)c1)C1CCN(Cc2ccccc2)CC1 [Compound 567] . Its In Vivo LVh 3 mg · kg · 8 h (remaining FAAH activity) was 6.3 % of control

Measured In Vivo LVh 3 mg · kg · 8 h (remaining FAAH activity) of CCN1CCC(N(C)C(=O)n2cnc(-c3ccc(OC)c(F)c3)c2)CC1 [Compound no. 503] : 25.1 % of control

Notebook: CN(C(=O)n1cnc(-c2ccc(O)c(C(N)=O)c2)c1)C1CCOCC1 [Compound no. 513] , In Vivo LVh 3 mg · kg · 8 h (remaining FAAH activity) read as 14.4 % of control

The reported In Vivo LVh 3 mg · kg · 8 h (remaining FAAH activity) of the compound CN(C(=O)n1cnc(-c2ccc(O)c([N+](=O)[O-])c2)c1)C1CCOCC1 [Compound no. 494] was 22.9 % of control

###

I'd be grateful if you could share measured In Vitro 100 nM (FAAH activity, % of control) for these entries.
- target_desc: FAAH (Rattus norvegicus, UniProt P97612)
- Construct: Frozen brains (without cerebellum) from Wistar rats were used; from tissue; host or cells: Wistar rat brain (without cerebellum), washed membrane pellets
- Sequence (P97612 1-579): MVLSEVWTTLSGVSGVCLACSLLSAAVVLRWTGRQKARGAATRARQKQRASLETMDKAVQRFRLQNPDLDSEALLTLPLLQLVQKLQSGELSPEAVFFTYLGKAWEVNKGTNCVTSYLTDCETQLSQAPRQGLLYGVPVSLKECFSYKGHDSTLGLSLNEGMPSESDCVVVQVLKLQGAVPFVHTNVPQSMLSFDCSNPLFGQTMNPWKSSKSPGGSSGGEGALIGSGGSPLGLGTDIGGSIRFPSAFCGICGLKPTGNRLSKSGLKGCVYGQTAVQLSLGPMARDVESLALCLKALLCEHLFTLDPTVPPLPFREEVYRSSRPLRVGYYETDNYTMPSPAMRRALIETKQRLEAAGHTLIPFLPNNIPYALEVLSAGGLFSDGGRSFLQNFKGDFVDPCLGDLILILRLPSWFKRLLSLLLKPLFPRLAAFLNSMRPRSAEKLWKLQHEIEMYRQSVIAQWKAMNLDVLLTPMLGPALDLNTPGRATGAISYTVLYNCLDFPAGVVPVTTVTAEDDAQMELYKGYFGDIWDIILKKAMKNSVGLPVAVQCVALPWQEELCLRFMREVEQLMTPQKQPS
- experimental_details: In vitro FAAH activity in rat brain membranes, 3H-AEA substrate, % of control
- Type: biochemical, Wistar rats
- test_parameters: rat brain membranes, compound at 100 nM, low value = strong inhibitor

The recorded In Vitro 100 nM (FAAH activity, % of control) for entry CN(C(=O)n1cnc(-c2cc3ccccc3o2)c1)C1CCCCC1 [Compound 334] equals 58.2 % of control

In Vitro 100 nM (FAAH activity, % of control) reading for CN(C(=O)n1cnc(-c2ccc(F)c(O)c2)c1)C1CCCC1 [Compound 344] : 1.7 % of control

Value of In Vitro 100 nM (FAAH activity, % of control) reported for the molecule CN(C(=O)n1cnc(-c2ccccc2)c1)C1CCN(Cc2ccccc2)CC1 [Compound 282] is 40.9 % of control

For this molecule ( CN(C(=O)n1cnc(-c2ccc[n+]([O-])c2)c1)C1CCCCC1 [Compound no. 362] ), measured In Vitro 100 nM (FAAH activity, % of control) is 78.2 % of control

The value of In Vitro 100 nM (FAAH activity, % of control) measured for the molecule CN(C(=O)n1cnc(-c2ccc(F)c(O)c2)c1)C1CCCCC1 [Compound 343] turned out to be 44.7 % of control

Sample O=C(N1COC(c2ccccc2)C1)n1cnc(-c2ccc(F)c(F)c2)c1 (stereo not drawn) [Compound 308] ; In Vitro 100 nM (FAAH activity, % of control) observed: 2.5 % of control

// In Vitro 100 nM (FAAH activity, % of control) value for CN(C(=O)n1cnc(-c2ccccc2)c1)C1CCOCC1 [Compound 278] : 103.5 % of control

// In Vitro 100 nM (FAAH activity, % of control) value for CC1(C)COCN1C(=O)n1nnc2cc(Cl)ccc21 [Compound no. 359] : 1.4 % of control

Documented In Vitro 100 nM (FAAH activity, % of control) of Cc1nc(-c2ccccc2)cn1C(=O)N(C)C1CCCCC1 [Compound 279] : 87.3 % of control

Origin of the recorded values: patent US9353082B2
